Target Entity: GORASP2, Q9H8Y8
Assay Info: holdup assay
Parameters: key: below the threshold = too weak to quantify, mostly under pKd 3.1 to 4
Experimental Parameters: plain residues with an end cap or a label only (N-terminal biotin on a linker: ahx)

{"columns": ["Binder", "pKd"],
 "data": [
  ["KEYDDELTFF [USH1C, Q9Y6N9]", 3.57],
  ["SAPATLSSRA [PDLIM2, Q96JY6]", "below the threshold"],
  ["KDECVIATEV [DLL1, O00548]", "below the threshold"],
  ["VNENQKEYFF [CNTNAP4, Q9C0A0]", "below the threshold"],
  ["PKMKLNETSF [SHKBP1, Q8TBC3]", "below the threshold"],
  ["AKPQPVDSWV [ARVCF, O00192]", 4.51],
  ["YNSFLSVTTV [PDZRN3, Q9UPQ7]", 4.33],
  ["SKKNELFSNL [NHERF1, O14745]", "below the threshold"],
  ["HSATSVHTSV [MTMR1, Q13613]", "below the threshold"],
  ["ADENEQVSAV [RAPGEF6, Q8TEU7]", "below the threshold"]
]}

FYI, the data here is from paper PMC9482650.
